// reported protein stability index per item
B1: OAS1 (parent)
chain: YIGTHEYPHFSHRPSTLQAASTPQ

Variants of: B1
TEST SUMMARY: protein stability index of a GFP-peptide fusion (GPS, HEK-293T) (PSI 1-6); higher = more stable;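 also: lentivirally expressed fusions sorted by FACS into six bins by GFP to DsRed ratio, PSI derived from sequencing read proportions per bin multiplied by bin number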
TEST CONTEXT: c terminus: a fixed tail appended
Kindly provide the number alone.

MUTANT ID | protein stability index
R13I | 1.92
Y7G | 1.98
T4E | 2.55
P23G | 1.53
F10N | 2.43

Fill blank: measured protein stability index of the variant H12G is ____.
1.71

Okay, and Y7I ?
2.44

Okay, and Y1N ?
4.04

Okay, and A20D ?
1.75

Provenance of the data: the supplement of paper PMC10567573
